Every entry's value here was drawn from ChEMBL document CHEMBL4834433.

# Test description: Microsomal stability in human liver microsomes assessed as parent compound remaining at […] measured after 10 mins
# Assay type: ADME
# Test settings: read-out: Stabilty
Measurement kind: remaining at 10 min (%)

[
  {
    "Smiles input": "O=C(C[C@@H]1Cc2cc(Cl)c3[nH]c(=O)n(CC(F)(F)F)c3c2CN(CC(F)(F)F)C1=O)N1CCC(n2c(=O)[nH]c3ncccc32)CC1",
    "Measurement kind": "remaining at 10 min",
    "Measured number": 90
  }
]

I: O=C(C[C@@H]1Cc2cc(Cl)c3c(c2CN(CC(F)(F)F)C1=O)C(F)(F)C(=O)N3)N1CCC(n2c(=O)[nH]c3ncccc32)CC1
II: N#Cc1c[nH]c2c(Cl)cc3c(c12)CN(CC(F)(F)F)C(=O)[C@H](CC(=O)N1CCC(n2c(=O)[nH]c4ncccc42)CC1)C3
III: O=C(C[C@@H]1Cc2cc(Cl)c3c(c2CN(CC(F)(F)F)C1=O)C(F)(F)C(=O)N3)N1CCC(N2CCc3ccccc3NC2=O)CC1
Form: Sort by [remaining at 10 min] Order [ ascending ] Return value: ordered labels per request. III, II, I
(III: 22%, II: 40%, I: 91%)

* * *

# Test description: Microsomal stability in monkey microsomes assessed as parent compound remaining at […] measured after 10 mins
# Type: ADME, Macaca mulatta, Liver, Microsome
# Test settings: rhesus monkey, read-out: Stabilty
Measurement kind: remaining at 10 min (%)

[
  {
    "Smiles input": "NC(=O)c1c[nH]c2c(Cl)cc3c(c12)CN(CC(F)(F)F)C(=O)[C@H](CC(=O)N1CCC(n2c(=O)[nH]c4ncccc42)CC1)C3",
    "remaining at 10 min / %": 70
  },
  {
    "Smiles input": "Cn1c(=O)[nH]c2c(Cl)cc3c(c21)CN(CC(F)(F)F)C(=O)[C@H](CC(=O)N1CCC(N2CCc4ccccc4NC2=O)CC1)C3",
    "remaining at 10 min / %": 75
  },
  {
    "Smiles input": "O=C(C[C@@H]1Cc2cc(Cl)c3[nH]c(=O)n(CC(F)(F)F)c3c2CN(CC(F)(F)F)C1=O)N1CCC(N2CCc3ccccc3NC2=O)CC1",
    "remaining at 10 min / %": 87
  },
  {
    "Smiles input": "O=C(C[C@@H]1Cc2cc(Cl)c3[nH]c(=O)oc3c2CN(CC(F)(F)F)C1=O)N1CCC(n2c(=O)[nH]c3ncccc32)CC1",
    "remaining at 10 min / %": 63
  }
]

* * *

# Test description: Microsomal stability in human liver microsomes assessed as parent compound remaining at […] measured after 10 mins
# Assay type: ADME
# Test settings: read-out: Stabilty
Measurement kind: remaining at 10 min (%)

[
  {
    "Smiles input": "O=C(C[C@@H]1Cc2cc(Cl)c3[nH]nnc3c2CN(CC(F)(F)F)C1=O)N1CCC(n2c(=O)[nH]c3ncccc32)CC1",
    "Unit tag": "%",
    "remaining at 10 min": 62
  }
]

a: NC(=O)c1c[nH]c2c(Cl)cc3c(c12)CN(CC(F)(F)F)C(=O)[C@H](CC(=O)N1CCC(n2c(=O)[nH]c4ncccc42)CC1)C3
b: O=C(C[C@@H]1Cc2cc(Cl)c3[nH]ccc3c2CN(CC(F)(F)F)C1=O)N1CCC(N2CCc3ccccc3NC2=O)CC1
c: O=C(C[C@@H]1Cc2cc(Cl)c3[nH]cnc3c2CN(CC(F)(F)F)C1=O)N1CCC(N2CCc3ccccc3NC2=O)CC1
Sort the molecules on remaining at 10 min; start with the lowest figure. // list labels; follow requested order b, c, a

* * *

# Experimental target: Cytochrome P450 3A4 (Homo sapiens)
# Sequence (P08684 whole entry): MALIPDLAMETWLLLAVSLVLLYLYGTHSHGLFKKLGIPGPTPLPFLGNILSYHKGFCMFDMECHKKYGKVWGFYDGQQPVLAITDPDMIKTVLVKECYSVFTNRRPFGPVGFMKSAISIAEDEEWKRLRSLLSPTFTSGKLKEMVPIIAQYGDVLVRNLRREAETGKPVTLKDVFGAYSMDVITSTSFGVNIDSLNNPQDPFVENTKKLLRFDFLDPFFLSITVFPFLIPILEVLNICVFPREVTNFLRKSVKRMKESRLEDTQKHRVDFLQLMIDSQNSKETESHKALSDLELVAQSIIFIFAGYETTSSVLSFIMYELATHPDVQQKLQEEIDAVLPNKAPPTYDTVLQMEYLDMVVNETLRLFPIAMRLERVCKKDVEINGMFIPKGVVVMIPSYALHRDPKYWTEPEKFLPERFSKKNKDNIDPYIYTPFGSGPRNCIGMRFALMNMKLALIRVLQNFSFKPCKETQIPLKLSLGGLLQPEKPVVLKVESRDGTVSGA
# Test description: Time dependent inhibition of CYP3A4 (unknown origin) measured after 30 mins
Measurement kind: IC50 (µM)

[
  {
    "Smiles input": "Cn1c(=O)[nH]c2c(Cl)cc3c(c21)CN(CC(F)(F)F)C(=O)[C@H](CC(=O)N1CCC(N2CCc4ccccc4NC2=O)CC1)C3",
    "Measurement kind": "IC50",
    "Measured number": 8.1
  }
]

1: O=C(C[C@@H]1Cc2cc(Cl)c3[nH]ncc3c2CN(CC(F)(F)F)C1=O)N1CCC(N2CCc3ccccc3NC2=O)CC1
2: O=C(C[C@@H]1Cc2cc(Cl)c3[nH]c(=O)n(CC(F)(F)F)c3c2CN(CC(F)(F)F)C1=O)N1CCC(N2CCc3ccccc3NC2=O)CC1
Which entry shows the lesser value of IC50 here, 1 or 2 ? Lab log: write the label of the selected item as the result. 1
(1: 0.1 µM, 2: 8.4 µM)

* * *

# Test description: Total plasma concentration in human CGRPalpha-induced migraine marmoset model at 3 mg/kg, sc measured after 15 to 105 mins
# Format: ADME, organism-based, Callithrix jacchus
# Test settings: in vivo, time 15-105 min
Measurement kind: concentration (nM)
The figure you give is taken to be in nM; do not add the unit.

Which concentration is listed for "Cn1c(=O)[nH]c2c(Cl)cc3c(c21)CN(CC(F)(F)F)C(=O)[C@H](CC(=O)N1CCC(N2CCc4ccccc4NC2=O)CC1)C3" ? 40

* * *

# Test description: Microsomal stability in monkey microsomes assessed as parent compound remaining at […] measured after 10 mins
# Format: ADME, Macaca mulatta, Liver, Microsome
# Test settings: rhesus monkey, read-out: Stabilty
Measurement kind: remaining at 10 min (%)

Solved entries (count: 2):
[
  {
    "Smiles input": "O=C(C[C@@H]1Cc2cc(Cl)c3[nH]c(=O)[nH]c3c2CN(CC(F)(F)F)C1=O)N1CCC(N2CCc3ccccc3NC2=O)CC1",
    "Measured number": 71
  },
  {
    "Smiles input": "CCn1c(=O)[nH]c2c(Cl)cc3c(c21)CN(CC(F)(F)F)C(=O)[C@H](CC(=O)N1CCC(N2CCc4ccccc4NC2=O)CC1)C3",
    "Measured number": 59
  }
]

A: O=C(C[C@@H]1Cc2cc(Cl)c3[nH]nnc3c2CN(CC(F)(F)F)C1=O)N1CCC(n2c(=O)[nH]c3ncccc32)CC1
B: O=C(C[C@@H]1Cc2cc(Cl)c3[nH]c(=O)n(CC(F)(F)F)c3c2CN(CC(F)(F)F)C1=O)N1CCC(n2c(=O)[nH]c3ncccc32)CC1
C: O=C(C[C@@H]1Cc2cc(Cl)c3[nH]ccc3c2CN(CC(F)(F)F)C1=O)N1CCC(N2CCc3ccccc3NC2=O)CC1
D: Cn1c(=O)[nH]c2c(Cl)cc3c(c21)CN(CC(F)(F)F)C(=O)[C@H](CC(=O)N1CCC(N2CCc4ncccc4NC2=O)CC1)C3
E: O=C(C[C@@H]1Cc2cc(Cl)c3c(c2CN(CC(F)(F)F)C1=O)C(F)(F)C(=O)N3)N1CCC(n2c(=O)[nH]c3ncccc32)CC1
Put the entries in order of remaining at 10 min, starting with the largest number. Your task in answering is to list the labels in the requested order. D, A, B, E, C

* * *

# Experimental target: Calcitonin gene-related peptide type 1 receptor (Homo sapiens, UniProt O60894+Q16602)
# Sequence (Q16602 whole entry, one chain of several): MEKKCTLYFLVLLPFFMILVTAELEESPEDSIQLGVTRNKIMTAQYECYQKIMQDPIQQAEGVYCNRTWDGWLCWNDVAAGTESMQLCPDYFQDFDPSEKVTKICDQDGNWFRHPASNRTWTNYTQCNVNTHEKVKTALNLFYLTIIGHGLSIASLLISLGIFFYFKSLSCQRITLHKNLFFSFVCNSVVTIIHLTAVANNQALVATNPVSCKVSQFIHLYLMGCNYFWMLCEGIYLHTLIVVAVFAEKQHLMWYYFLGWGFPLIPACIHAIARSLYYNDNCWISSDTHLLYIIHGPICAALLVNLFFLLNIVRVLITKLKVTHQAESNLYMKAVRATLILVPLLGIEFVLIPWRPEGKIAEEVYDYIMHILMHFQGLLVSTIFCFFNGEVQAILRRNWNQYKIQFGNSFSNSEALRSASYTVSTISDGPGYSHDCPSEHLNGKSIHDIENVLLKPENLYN
# Test description: Displacement of [125I]CGRP from human CGRP receptor in human SK-N-MC cells measured after 2 hrs by scintillation counting analysis
Measurement kind: Ki (pM)

1: CCn1c(=O)[nH]c2c(Cl)cc3c(c21)CN(CC(F)(F)F)C(=O)[C@H](CC(=O)N1CCC(N2CCc4ccccc4NC2=O)CC1)C3
2: O=C(C[C@@H]1Cc2cc(Cl)c3c(c2CN(CC(F)(F)F)C1=O)C(F)(F)C(=O)N3)N1CCC(N2CCc3ccccc3NC2=O)CC1
3: Cn1c(=O)[nH]c2c(Cl)cc3c(c21)CN(CC(F)(F)F)C(=O)[C@H](CC(=O)N1CCC(N2CCc4ncccc4NC2=O)CC1)C3
4: NC(=O)c1c[nH]c2c(Cl)cc3c(c12)CN(CC(F)(F)F)C(=O)[C@H](CC(=O)N1CCC(n2c(=O)[nH]c4ncccc42)CC1)C3
From the records above, write out the order of decreasing Ki. # output: labels, in the requested order 4, 2, 3, 1
(4: 400 pM, 2: 69 pM, 3: 43 pM, 1: 14 pM)

* * *

# Test description: Permeability form basolateral to apical side in human Caco2 cells
# Type: ADME, cell-based
# Test settings: Caco-2, read-out: permeability
Measurement kind: Papp B→A (×10⁻⁶ cm/s)

For orientation, consider the following solved cases.
[
  {
    "Smiles input": "O=C(C[C@@H]1Cc2cc(Cl)c3[nH]c(=O)n(CC(F)(F)F)c3c2CN(CC(F)(F)F)C1=O)N1CCC(N2CCc3ccccc3NC2=O)CC1",
    "Measurement kind": "Papp B→A",
    "Measured number": 2.4
  },
  {
    "Smiles input": "Cn1c(=O)[nH]c2c(Cl)cc3c(c21)CN(CC(F)(F)F)C(=O)[C@H](CC(=O)N1CCC(N2CCc4ccccc4NC2=O)CC1)C3",
    "Measurement kind": "Papp B→A",
    "Measured number": 19.6
  }
]

a: O=C(C[C@@H]1Cc2cc(Cl)c3[nH]c(=O)n(CC(F)(F)F)c3c2CN(CC(F)(F)F)C1=O)N1CCC(n2c(=O)[nH]c3ncccc32)CC1
b: O=C(C[C@@H]1Cc2cc(Cl)c3c(c2CN(CC(F)(F)F)C1=O)C(F)(F)C(=O)N3)N1CCC(n2c(=O)[nH]c3ncccc32)CC1
Record comparison, field Papp B→A: mark the lower of a and b . // caller expects the label of the chosen entry a
(a: 16.5 ×10⁻⁶ cm/s, b: 25.7 ×10⁻⁶ cm/s)
